Below, each of the compounds is paired with its reported IC50 value.
Target: Caspase-3 (Homo sapiens) + Caspase-9 (Homo sapiens) (UniProt P42574+P55211)
Sequence (P42574 whole entry, looked up): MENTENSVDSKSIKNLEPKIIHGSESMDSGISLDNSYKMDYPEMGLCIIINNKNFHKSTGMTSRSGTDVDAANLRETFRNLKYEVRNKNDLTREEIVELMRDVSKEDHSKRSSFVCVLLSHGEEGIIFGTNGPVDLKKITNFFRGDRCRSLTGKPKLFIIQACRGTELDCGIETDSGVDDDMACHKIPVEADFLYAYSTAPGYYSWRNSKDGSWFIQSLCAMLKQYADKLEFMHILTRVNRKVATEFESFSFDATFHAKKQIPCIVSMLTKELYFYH
Sequence (P55211 whole entry, looked up): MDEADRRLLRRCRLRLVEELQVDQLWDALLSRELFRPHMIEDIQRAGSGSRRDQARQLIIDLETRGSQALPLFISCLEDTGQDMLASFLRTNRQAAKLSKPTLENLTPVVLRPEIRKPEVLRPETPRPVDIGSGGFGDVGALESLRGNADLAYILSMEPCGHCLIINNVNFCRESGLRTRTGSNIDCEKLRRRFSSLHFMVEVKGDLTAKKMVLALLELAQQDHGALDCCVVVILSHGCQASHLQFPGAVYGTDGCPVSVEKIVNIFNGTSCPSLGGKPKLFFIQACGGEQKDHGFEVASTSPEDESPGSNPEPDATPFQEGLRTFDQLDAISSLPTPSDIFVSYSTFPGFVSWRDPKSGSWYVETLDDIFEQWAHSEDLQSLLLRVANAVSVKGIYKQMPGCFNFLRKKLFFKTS
Assay: inhibition of LZ-caspase-9 coupled caspase-3 activity – biochemical, fluorescence, selectivity assay for Apaf-1 inhibitor project, SAR follow-up (AID 588577)
Conditions: recombinant LZ-caspase-9 activating caspase-3, fluorogenic substrate
Active and inactive are the calls of the source. How the calls were made is not given here.

Reference set, count: 5
| compound | result |
| --- | --- |
| Cc1cc(NC(=O)C2CC2)sc1C(=O)Nc1ccc2nc(-c3cc(F)ccc3F)[nH]c2c1 | 89.7 µM |
| CCN(CC)CCOC(=O)c1ccc(N/C=C(\C#N)c2nc(-c3ccc(Cl)c(Cl)c3)cs2)cc1 | 72 µM |
| Cn1cc(C(CC(=O)c2ccc(C(C)(C)C)cc2)C(=O)O)c2ccccc21 (stereo not given) | 85.3 µM |
| CCN(CC)CCOC(=O)c1ccc(N/C=C(/C#N)c2nc(-c3cc4ccccc4oc3=O)cs2)cc1 | > 100 µM (inactive) |
| Cc1ccc(-c2nc3ccc(NC(=O)c4cccs4)cc3[nH]2)o1 | > 100 µM (inactive) |

For the compound "CCN(CC)CCOC(=O)c1ccc(N/C=C(/C#N)c2nc(-c3ccc4c(c3)OCO4)cs2)cc1" , give its measured IC50 value.
> 100 µM (inactive)

State, in one line, measured IC50 of Cn1cc(C(CC(=O)c2ccc(C3CCCCC3)cc2)C(=O)O)c2ccccc21 (stereo not given)
98.8 µM

Kindly indicate its recorded IC50. Item: "Cc1ccc2c(c1)C(=O)c1nc3ccccc3c(=O)n1-2"
> 100 µM (inactive)

Give the reported IC50 for this compound. "O=C1c2cc(Cl)ccc2-n2c1nc1ccccc1c2=O"
89.6 µM

Tell me its IC50 given "Cc1nc2ccc(-c3nc4ccc(NC(=O)c5cccs5)cc4[nH]3)cc2[nH]1" as the entry.
> 100 µM (inactive)

* * *

Molecular target: Caspase-3 (Homo sapiens) + Caspase-9 (Homo sapiens) (UniProt P42574+P55211)
Assay: inhibition of LZ-caspase-9 coupled caspase-3 activity – biochemical, fluorescence, selectivity assay for Apaf-1 inhibitor project, SAR follow-up (AID 588577)
Conditions: recombinant LZ-caspase-9 activating caspase-3, fluorogenic substrate
The source made the active and inactive calls. No rule for the calls is given here.
Mark one answer only. Choices: active, inactive

The following compounds have reported results that may help.
| compound | qualitative label |
| --- | --- |
| CCN(CC)CCOC(=O)c1ccc(N/C=C(\C#N)c2nc(-c3ccc(Br)cc3)cs2)cc1 | inactive |
| O=C(Nc1ccc2nc(-c3ccc(Br)o3)[nH]c2c1)c1cccs1 | inactive |
| CCN(CC)CCOC(=O)c1ccc(N/C=C(\C#N)c2nc(-c3cccs3)cs2)cc1 | inactive |
| CC(=O)c1ccc(C(=O)Nc2ccc3nc(C)[nH]c3c2)s1 | inactive |
| O=C(Nc1ccc(-c2nc3ccc(NC(=O)c4cccs4)cc3[nH]2)cc1)c1cccs1 | inactive |
| CCN(CC)CCOC(=O)c1ccc(N/C=C(/C#N)c2nc(-c3ccc(OC)cc3)cs2)cc1 | inactive |
| CCN(CC)CCOC(=O)c1ccc(N/C=C(/C#N)c2nc(-c3ccc(OC)c(OC)c3)cs2)cc1 | inactive |
| COc1ccc(N2C(=O)CC3(CC(c4ccc(F)cc4)=NO3)C2=O)cc1 (stereo not given) | active |

In this assay, the call recorded for "O=C(Nc1ccc2nc(-c3cccs3)[nH]c2c1)c1cccs1" was what?
inactive

Could you kindly confirm the outcome this assay logged for "O=C(Nc1ccc2c(c1)C(=O)NC2=O)c1nc2ccccc2s1" ?
inactive
